// provenance: the supplement of paper PMC6555819

Test system: RARb:RXRa (NR concentration 270 nM, RXRa partner concentration 90 nM)
measurement-description: PBM binding z-score (relative to random genomic background probes); higher = stronger binding; sequences stand for … in GC…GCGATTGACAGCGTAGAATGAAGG
assay-readout: PBM binding z-score

input-sequence	observed-measurement
TCTTGTAGATCAGCAGGTTAAGAAAGCTGGCCAA	0.213
CGTCCAAGGTCTATGCTAGGTCAGTGAAAGCATT	1.62
CCTTACTGGTCACGAGGTTATAGCACGACGAGCG	2.46
TCATACAGGTAATACAGGTGAAAGTCGGCATCTA	0.835
AGAATGAGGTTACCAAAGATCAGGGGAACGCTTG	2.18
ACTAACAGGCCAAGTTTGGGTCACTCAAACAAAG	2.11
CCGACTGGGGCAAAGGTTACCATTCTCAGTACGA	2.39
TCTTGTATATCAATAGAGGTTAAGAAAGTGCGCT	0.997
GCAGACAGGTGAAACGCCGGTAACTCAGGGTGGC	0.606
TCTAGCAGGCCAGAGGGTCACTCTAGAGGTACGG	2.27
TCAGACAGGTGAAGGTAACTCACGTACGCAGTCG	1.07
CCTTACGGGTCACTCCAGGTAATAGCATCGGAGT	3.72
CCTACTTGGCCATCAGGTCATTGATATCAACGTT	2.19
TGAATGAGGTTAAAGATCAGAGAACGTGGCGTCG	1.98
TCTCGGAGGACACGAAGGTCATAGCTTTCCAGAG	3.62
AGACAAAGTTCACTAGGTAACGTAAGATTCAGCT	4.83
CAAACTAGGGCAAGAGGTCAAAGTCCGCTTCCCG	4.51
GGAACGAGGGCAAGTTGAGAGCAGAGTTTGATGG	2.74
AGAATGAGGATATTAAGATCAGGGAATTGCGGTC	-0.259
GCGGCTAGGTCAACTGATGGTCAGCTAAAGCTCG	4.36
GATACAGGGCCAAGGCCAGAGTACGCGTATTGAT	0.946
TCTTGTAGATCAAGCAGGATAAGAAAGCCTGAGT	-0.349
CGTCAAAGTTTAACTAAGGTAACGTAAAGCACGC	2.44
GCGACTGGGGCAAAGCAGGTTAACATAAGGTTGG	1.05
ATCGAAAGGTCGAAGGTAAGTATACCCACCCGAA	3.59
ACTAGTTCGTCAGCTGAGGTCACACACAATTCGG	3.52
CCTACTGGGCCATTCAGAGGTCATTGGTCATATG	3.03
ATCTCTAAGTAAAAGTTCAGTGAATCCCGAGGAT	2.33
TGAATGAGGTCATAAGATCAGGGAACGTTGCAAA	4.55
AGAATGAGGTTAATATCAGGGAAACAGAATACAT	1.55
CCTAGTTGGTCAAGGCCACACACGCTATAGGTAC	1.76
CCTACTGGGCCATCAGGGCATTGATATCAACGTT	0.358
TTACCAAGGTGAGCTGTGGTCGTTGATCCAACTC	1.04
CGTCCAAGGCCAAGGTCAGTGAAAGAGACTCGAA	3.58
AGAATGAGGTTGAGATCAGGGAAACAGAATACAT	0.263
AGACCGAGGGCACGCTGAGTTGATAGCAGAGTAG	2.61
ATATGTCGGTTACATCCGGGTCATTCAGGCTATG	1.91
ACCGAAAGGTCGAGGTGAGTATAGAGAAAGGGAA	4.17
ATCTCTCGGTAAAAGTTCAGTGAATCCCGAGGAT	2.4
ATCTCTAGGTAGAGATAGTTCAGTGAATGCAAAT	0.242
CCTAGTTGGTCAGGAGGTCACACTCCGGATATGA	3.72
AATACAGGGTCATCGTAGGCCAGCGTACGCACAG	4.55
TAGCCTGGGTCATTGGGCCAGTATAGTACGCATC	3.34
CGAATTAGGTCAAGGACAGTGAATCTCCGCACGC	4.18
CGTCCAAGGTCAGAGAGTTCAGTGAATGCCGAGT	4.78
CCTAATGGGCCAAGGTCATTGATCAGTCAAAGCA	3.59
CTCGAAAGCTCGGTTGAGGTGAGTATACGGATAA	-0.166
TAGCCTAGGTCATTAAGGGGCCAGTATAGAAAGC	3.64
GCGACTGGGGCATCAGCAGGTTACCAGAACTTAA	0.987
TCTTGTAGATCAACAAGAGGTTAAGAAAGATCGA	0.99
TCTTTTAGATCAGCAGGTTAAGAAAGCTGGCCAA	0.563
